Tested on: three broadleaf weeds: wild mustard, redroot pigweed and curly dock
Assay: Pre-emergence herbicidal activity, broadleaf weeds (Table III)
Type: in vivo, Brassica kaber, Amaranthus retroflexus, Rumex crispus
Conditions: 2.24 kg/ha, 2-3 weeks after treatment
Decision: % Control, Pre-Emergence, BL Avg. >= 7% yields y, all other cases yield n.

Observe how each entry below is paired with its result.
compound	label value
CCCCN(CCCC)P(=O)(SCCC)N(CC)CC (stereo not shown)	y
CCCCN(CCCC)P(=O)(SCC)N(CCCC)CCCC	n
CCCCN(CCCC)P(=O)(SCC)N(CC)CC (stereo not shown)	y
CCCN(CCC)P(=O)(SC(C)CC)N(CCC)CCC (stereo not shown)	y
CCCN(CCC)P(=O)(Sc1ccccc1)N(CCC)CCC	n
CCCCSP(=O)(N(CCC)CCC)N(CCCC)CCCC (stereo not shown)	n

Quick check: does `CCCCCSP(=O)(N(CCCC)CCCC)N(CCCC)CCCC` have % Control, Pre-Emergence, BL Avg. greater than or equal to 7%?
y

Is % Control, Pre-Emergence, BL Avg. for CCCN(CCC)P(=O)(SC(C)CC)N1CC(CC)CCC1C (stereo not shown) at or above 7%?
y
